Reported IC50 by item:
Biological target: Human ABL1 (T315I) (Homo sapiens (Human), UniProt P00519, T315I)
Assay: ABL1 (T315I) kinase activity assay ([γ-33P] ATP, Abltide)
Conditions: 1.0 μM ATP, 5.0 μM Abltide, 120 minutes
Dear colleague, please return just the value in nM, with no unit written.

Cc1ccc(C(=O)Nc2ccc(CN3CCN(C)CC3)c(C(F)(F)F)c2)cc1C#Cc1ccc(-c2ncc[nH]2)nc1 [Example 19]
6.81
Cc1ccc(C(=O)Nc2ccc(CN3CCN(C)CC3)c(C(F)(F)F)c2)cc1C#Cc1cn(C)c(-c2ncc(C(F)(F)F)[nH]2)n1 [Example 9]
6.45

--- query ---
Q) State, in one line, measured IC50 of Cc1ccc(C(=O)Nc2ccc(CN3CCN(C)CC3)c(C(F)(F)F)c2)cc1C#Cc1cnc2[nH]ccc2n1 [Example 3]
A) 2.12

###

Tested on: K562 leukemia cells
Assay: MTT assay, in vitro inhibitory activity on cells
Type: cell-based
Conditions: Homo sapiens, typically 48 hours, read-out: IC50 K562 Chronic myelogenous leukemia cells
property_label: pIC50
A value of pIC50 is the negative decimal logarithm of a concentration given in moles per litre.

CNC(=O)c1cc(Oc2ccc(NC(=O)c3ccc(C)c(C#Cc4ccc(-c5nc[nH]n5)nc4)c3)cc2)ccn1 [Example 26]
5.23

Q) State, in one line, measured pIC50 of Cc1ccc(C(=O)Nc2ccc(CN3CCN(C)CC3)c(C(F)(F)F)c2)cc1C#Cc1ccc(-c2ncc[nH]2)nc1 [Example 19]
A) 5.34

Q) State, in one line, measured pIC50 of Cc1ccc(C(=O)Nc2ccc(CN3CCN(C)CC3)c(C(F)(F)F)c2)cc1C#Cc1cnc2[nH]ccc2n1 [Example 3]
A) 5.20
